pKd overview
Assay target: Aurora-A (Homo sapiens, UniProt O14965)
Sequence (O14965 whole entry): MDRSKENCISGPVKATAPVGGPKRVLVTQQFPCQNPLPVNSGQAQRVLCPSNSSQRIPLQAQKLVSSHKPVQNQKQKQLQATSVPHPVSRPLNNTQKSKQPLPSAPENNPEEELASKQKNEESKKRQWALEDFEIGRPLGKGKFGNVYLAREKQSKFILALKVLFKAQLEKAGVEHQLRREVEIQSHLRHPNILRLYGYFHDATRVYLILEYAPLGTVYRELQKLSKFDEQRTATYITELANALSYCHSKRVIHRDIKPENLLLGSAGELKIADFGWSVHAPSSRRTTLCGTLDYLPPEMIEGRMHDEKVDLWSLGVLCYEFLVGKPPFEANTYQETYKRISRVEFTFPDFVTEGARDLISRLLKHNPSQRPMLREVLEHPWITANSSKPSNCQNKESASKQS
Protocol: FastStep SPR direct binding of compounds to immobilized Aurora-A
Parameters: His-tag (N); host or cells: Escherichia coli BL21(DE3)
Run conditions: Kd, SPR, Aurora-A immobilized on COOH5 sensorchip; affinities from Scatchard plots; ± standard error of best-fit; low affinity given as >100 μM
pKd: −log10 of the molar value.

// below: answered compounds
{"Compound": "O=C(Nc1ccc2c(c1)CN(C(=O)c1ccco1)CC2)c1ccc(-c2ccccc2)cc1 [C12]", "Assay target": "Aurora-A (Homo sapiens, UniProt O14965)", "Reading": "< 4.00"}
{"Compound": "COc1cc(NC(=S)NC(=O)c2cccc(F)c2)ccc1NC(=O)c1cc2ccccc2o1 [C20]", "Assay target": "Aurora-A (Homo sapiens, UniProt O14965)", "Reading": 4.52}

Input line: Name the recorded pKd for COc1cc(/C=C2\C(=O)Nc3ccccc32)c(Br)cc1OCc1ccccc1C#N [C19] .
Output line: < 4.00

Input line: Do the same for CN1/C(=C\c2cccc3[nH]ccc23)C(=O)c2ccccc2S1(=O)=O [C08] please
Output line: 4.10

Input line: Do the same for CNC(=O)C1CN(C(=O)c2ccc3ccccc3c2)c2ccccc2O1 (stereo not drawn) [C10] please
Output line: < 4.00

Input line: Do the same for CCn1c(NC(=O)CCn2c(-c3ccc(OC)cc3)n[nH]c2=S)nc2ccccc21 [C13] please
Output line: < 4.00

Input line: Do the same for O=C1Nc2ccc(F)cc2/C1=N\NC(=O)c1ccc2c(c1)OCO2 [C05] please
Output line: < 4.00

Input line: Do the same for O=C1Nc2ccccc2/C1=N\NC(=O)C1COc2ccccc2O1 (stereo not drawn) [C04] please
Output line: 4.00

Input line: Do the same for O=C1Cc2cc(S(=O)(=O)Nc3ccccc3C(=O)O)ccc2N1 [C06] please
Output line: < 4.00

---

Assay target: Aurora-A (Homo sapiens)
Protocol: FastStep SPR direct binding of compounds to immobilized Aurora-A
Design: His-tag (N); host or cells: Escherichia coli BL21(DE3)
Run conditions: SPR, Aurora-A immobilized on COOH5 sensorchip; affinities from Scatchard plots; ± standard error of best-fit; low affinity given as >100 μM; read-out: Kd
Quantity kind: Kd (µM)
Your answer should be a plain number; it is taken to be in µM.

// below: answered compounds
{"Compound": "O=C1Nc2ccccc2/C1=N/NC(=O)c1ccc2ccccc2n1", "Kd [µM]": 42}
{"Compound": "CC1=C(/C(O)=N/c2ccc(F)cc2F)[C@H](c2cccnc2)C2=C(C[C@@H](c3ccccc3)CC2=O)N1", "Kd [µM]": 15}
{"Compound": "CC(Oc1ccc2c(c1)c1ccnc3c4ccccc4c(=O)n2c13)C(=O)NCc1ccc2c(c1)OCO2 (centres unmarked)", "Kd [µM]": 12}

Let us examine a further case.
Input line: Requested read-out Kd, target or system Aurora-A (Homo sapiens), entry COc1ccc(CNC(=O)C(C)Oc2ccc3c(c2)c2ccnc4c5ccccc5c(=O)n3c24)cc1 (centres unmarked)
Output line: 12

The reported measurements were obtained from paper PMC5458272.
